Values from patent US20250074871A1

biological target: 5-HT4 (Homo sapiens, UniProt Q13639); test: 5-HT receptor activity panel (Table 3); assay type: cell-based
Sequence (Q13639 whole entry, species assumed): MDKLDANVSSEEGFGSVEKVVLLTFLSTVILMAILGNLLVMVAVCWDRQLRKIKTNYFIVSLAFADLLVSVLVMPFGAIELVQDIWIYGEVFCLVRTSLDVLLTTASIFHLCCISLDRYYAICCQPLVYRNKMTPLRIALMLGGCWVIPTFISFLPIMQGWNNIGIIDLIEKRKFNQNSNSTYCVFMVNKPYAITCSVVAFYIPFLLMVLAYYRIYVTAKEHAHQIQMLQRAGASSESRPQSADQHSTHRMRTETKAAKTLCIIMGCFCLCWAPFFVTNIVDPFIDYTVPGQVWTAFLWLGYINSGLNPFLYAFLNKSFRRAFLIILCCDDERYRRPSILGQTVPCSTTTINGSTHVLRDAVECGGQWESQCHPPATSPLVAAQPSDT
Readout: EC50

> print(dat)
                                   compound    result
1  CN(C)CCc1c[nH]c2cccc(O)c12 [psilocin, reference compound]  0.563 µM

====

target: 5-HT2A receptor (Homo sapiens); construct: expressed in transfected cells; host or cells: HEK293T; test: 5-HT2A Gq dissociation BRET functional assay; type: cell-based; conditions: Table 3 panel; read-out: 5-HT2A EC50
Sequence (P28223 whole entry): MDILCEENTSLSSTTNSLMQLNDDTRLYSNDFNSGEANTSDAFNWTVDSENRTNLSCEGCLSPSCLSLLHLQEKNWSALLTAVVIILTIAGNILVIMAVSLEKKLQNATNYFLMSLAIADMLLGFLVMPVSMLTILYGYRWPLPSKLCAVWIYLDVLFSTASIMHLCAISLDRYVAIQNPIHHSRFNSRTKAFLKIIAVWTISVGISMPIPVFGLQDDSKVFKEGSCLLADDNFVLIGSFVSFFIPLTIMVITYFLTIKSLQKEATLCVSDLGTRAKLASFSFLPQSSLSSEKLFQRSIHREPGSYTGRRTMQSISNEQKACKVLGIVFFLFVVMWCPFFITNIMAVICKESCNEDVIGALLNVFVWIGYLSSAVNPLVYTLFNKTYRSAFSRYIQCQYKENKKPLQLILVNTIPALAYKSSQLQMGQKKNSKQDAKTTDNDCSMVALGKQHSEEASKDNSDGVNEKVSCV
Readout: EC50

> print(dat)
                  smiles.record  result
1  CSc1ccccc1CNCCc1ccc(C#N)cc1O  4.8 nM
